Origin of the recorded values: the supplement of paper PMC10307832

System: A549
Assay: relative viability (nuclei count vs DMSO), 5 days (fraction); higher = more cells survive
Settings: first compound 20 µM
hey, just use rule met if measured relative viability is less than 0.09, otherwise rule not met

These recorded examples may help you get a feel for the data.
# compound, subject of test, label
data = [
    ("Cc1csc(=NC2CCCCC2)n1/N=C/c1ccc(O)c(O)c1O [MIM1] + O=C(c1cc(Cc2n[nH]c(=O)c3ccccc23)ccc1F)N1CCN(C(=O)C2CC2)CC1 [Olaparib] (partner 8 µM)", "A549", "rule met"),
    ("Cc1csc(=NC2CCCCC2)n1/N=C/c1ccc(O)c(O)c1O [MIM1] + CS(=O)(=O)N1CCN(Cc2cc3nc(-c4cccc5[nH]ncc45)nc(N4CCOCC4)c3s2)CC1 [Pictilisib] (partner 1 µM)", "A549", "rule met"),
    ("Cc1csc(=NC2CCCCC2)n1/N=C/c1ccc(O)c(O)c1O [MIM1] + N=C(N)NC(=N)NCCc1ccccc1 [Phenformin] (partner 250 µM)", "A549", "rule met"),
    ("Cc1csc(=NC2CCCCC2)n1/N=C/c1ccc(O)c(O)c1O [MIM1] + CS(=O)(=O)CCNCc1ccc(-c2ccc3ncnc(Nc4ccc(OCc5cccc(F)c5)c(Cl)c4)c3c2)o1 [Lapatinib] (partner 2 µM)", "A549", "rule not met"),
]

Kindly review the next compound as well.
query: I wonder whether Cc1csc(=NC2CCCCC2)n1/N=C/c1ccc(O)c(O)c1O [MIM1] + C[C@@H](Oc1cc(-c2cnn(C3CCNCC3)c2)cnc1N)c1c(Cl)ccc(F)c1Cl [Crizotinib] (partner 1 µM) has relative viability below 0.09. Can you tell?
result: rule not met

====

Test system: NCI-H2009
Test: relative viability (nuclei count vs DMSO), 5 days (fraction); higher = more cells survive
Conditions: first compound 0.2 µM
Item-by-item account of relative viability
The answer should be a number; do not append a unit.

Here's what some known entries look like.
# compound, subject of test, assay endpoint, endpoint value
measured = [
    ("Cc1csc(=NC2CCCCC2)n1/N=C/c1ccc(O)c(O)c1O [MIM1] + N=C(N)NC(=N)NCCc1ccccc1 [Phenformin] (partner 250 µM)", "NCI-H2009", "relative viability", 0.493),
    ("CCNC(=O)c1noc(-c2cc(C(C)C)c(O)cc2O)c1-c1ccc(CN2CCOCC2)cc1 [Luminespib] + CS(=O)(=O)CCNCc1ccc(-c2ccc3ncnc(Nc4ccc(OCc5cccc(F)c5)c(Cl)c4)c3c2)o1 [Lapatinib] (partner 2 µM)", "NCI-H2009", "relative viability", 0.0655),
]

query: What value of relative viability has been reported for the following compound? Cc1csc(=NC2CCCCC2)n1/N=C/c1ccc(O)c(O)c1O [MIM1] + O=C(CCCCCCC(=O)Nc1ccccc1)NO [Vorinostat] (partner 1 µM)
result: 0.717

====

Test system: PC-14
Assay: relative viability (nuclei count vs DMSO), 5 days (fraction); higher = more cells survive
Settings: first compound 0.2 µM
assay endpoint: relative viability
The answer should be a number; do not append a unit.

Here's what some known entries look like.
# compound, assay endpoint, endpoint value
rows = [
    ("CCNC(=O)c1noc(-c2cc(C(C)C)c(O)cc2O)c1-c1ccc(CN2CCOCC2)cc1 [Luminespib] + NC(=O)Nc1cc(-c2cccc(F)c2)sc1C(=O)N[C@H]1CCCNC1 [AZD7762] (partner 0.2 µM)", "relative viability", 0.0933),
    ("CCNC(=O)c1noc(-c2cc(C(C)C)c(O)cc2O)c1-c1ccc(CN2CCOCC2)cc1 [Luminespib] + CC(C)C[C@H](NC(=O)[C@H](Cc1ccccc1)NC(=O)c1cnccn1)B(O)O [Bortezomib] (partner 0.002 µM)", "relative viability", 0.0725),
    ("CN1CCN(CCOc2cc(OC3CCOCC3)c3c(Nc4c(Cl)ccc5c4OCO5)ncnc3c2)CC1 [Saracatinib] + CC1(C)CCC(c2ccc(Cl)cc2)=C(CN2CCN(c3ccc(C(=O)NS(=O)(=O)c4ccc(N[C@H](CCN5CCOCC5)CSc5ccccc5)c(S(=O)(=O)C(F)(F)F)c4)cc3)CC2)C1 [Navitoclax] (partner 0.5 µM)", "relative viability", 1.01),
]

We next turn to a different compound, shown below.
query: What value of relative viability has been reported for the following compound? CN1CCN(CCOc2cc(OC3CCOCC3)c3c(Nc4c(Cl)ccc5c4OCO5)ncnc3c2)CC1 [Saracatinib] + N=C(N)NC(=N)NCCc1ccccc1 [Phenformin] (partner 250 µM)
result: 0.441

====

System: SW 900
Test: relative viability (nuclei count vs DMSO), 5 days (fraction); higher = more cells survive
Settings: first compound 20 µM
Item-by-item account of relative viability
The answer should be a number; do not append a unit.

Here's what some known entries look like.
# compound, assay endpoint, endpoint value
data = [
    ("Cc1csc(=NC2CCCCC2)n1/N=C/c1ccc(O)c(O)c1O [MIM1] + CCNC(=O)c1noc(-c2cc(C(C)C)c(O)cc2O)c1-c1ccc(CN2CCOCC2)cc1 [Luminespib] (partner 0.01 µM)", "relative viability", 0.2),
    ("Cc1csc(=NC2CCCCC2)n1/N=C/c1ccc(O)c(O)c1O [MIM1] + COc1cc2c(Oc3ccc(NC(=O)C4(C(=O)Nc5ccc(F)cc5)CC4)cc3F)ccnc2cc1OCCCN1CCOCC1 [Foretinib] (partner 0.25 µM)", "relative viability", 0.443),
    ("Cc1csc(=NC2CCCCC2)n1/N=C/c1ccc(O)c(O)c1O [MIM1] + N=C(N)NC(=N)NCCc1ccccc1 [Phenformin] (partner 250 µM)", "relative viability", 0.176),
    ("Cc1csc(=NC2CCCCC2)n1/N=C/c1ccc(O)c(O)c1O [MIM1] + NC(=O)Nc1cc(-c2cccc(F)c2)sc1C(=O)N[C@H]1CCCNC1 [AZD7762] (partner 0.2 µM)", "relative viability", 0.19),
    ("Cc1csc(=NC2CCCCC2)n1/N=C/c1ccc(O)c(O)c1O [MIM1] + O=C(CCCCCCC(=O)Nc1ccccc1)NO [Vorinostat] (partner 1 µM)", "relative viability", 0.187),
    ("Cc1csc(=NC2CCCCC2)n1/N=C/c1ccc(O)c(O)c1O [MIM1] + Cc1nc(Nc2ncc(C(=O)Nc3c(C)cccc3Cl)s2)cc(N2CCN(CCO)CC2)n1 [Dasatinib] (partner 0.075 µM)", "relative viability", 0.23),
]

We next turn to a different compound, shown below.
query: Observed relative viability on SW 900 for Cc1csc(=NC2CCCCC2)n1/N=C/c1ccc(O)c(O)c1O [MIM1] + Nc1ncn([C@H]2C[C@H](O)[C@@H](CO)O2)c(=O)n1 [Decitabine] (partner 2 µM) , please.
result: 0.206

====

System: NCI-H1703
Experiment: relative viability (nuclei count vs DMSO), 5 days (fraction); higher = more cells survive
Conditions: first compound 0.6325 µM
Item-by-item account of relative viability

Here's what some known entries look like.
# molecule, relative viability
records = [
    ("CN1CCN(CCOc2cc(OC3CCOCC3)c3c(Nc4c(Cl)ccc5c4OCO5)ncnc3c2)CC1 [Saracatinib] + CS(=O)(=O)N1CCN(Cc2cc3nc(-c4cccc5[nH]ncc45)nc(N4CCOCC4)c3s2)CC1 [Pictilisib] (partner 1 µM)", 0.181),
    ("Cc1csc(=NC2CCCCC2)n1/N=C/c1ccc(O)c(O)c1O [MIM1] + CC1(C)CCC(c2ccc(Cl)cc2)=C(CN2CCN(c3ccc(C(=O)NS(=O)(=O)c4ccc(N[C@H](CCN5CCOCC5)CSc5ccccc5)c(S(=O)(=O)C(F)(F)F)c4)cc3)CC2)C1 [Navitoclax] (partner 0.5 µM)", 1.15),
    ("CN1CCN(CCOc2cc(OC3CCOCC3)c3c(Nc4c(Cl)ccc5c4OCO5)ncnc3c2)CC1 [Saracatinib] + CC(C)C[C@H](NC(=O)[C@H](Cc1ccccc1)NC(=O)c1cnccn1)B(O)O [Bortezomib] (partner 0.002 µM)", 0.293),
]

query: What value of relative viability has been reported for the following molecule? Cc1csc(=NC2CCCCC2)n1/N=C/c1ccc(O)c(O)c1O [MIM1] + CC(C)C[C@H](NC(=O)[C@H](Cc1ccccc1)NC(=O)c1cnccn1)B(O)O [Bortezomib] (partner 0.002 µM)
result: 0.358

====

Tested on: BEN
Assay: relative viability (nuclei count vs DMSO), 5 days (fraction); higher = more cells survive
Details: first compound 0.002 µM
hey, just use Y if measured relative viability is less than 1, otherwise N

# molecule, label
rows = [
    ("CCNC(=O)c1noc(-c2cc(C(C)C)c(O)cc2O)c1-c1ccc(CN2CCOCC2)cc1 [Luminespib] + Cc1nc(NC(=O)N2CCC[C@H]2C(N)=O)sc1-c1ccnc(C(C)(C)C(F)(F)F)c1 [Alpelisib] (partner 2 µM)", "N"),
    ("CCNC(=O)c1noc(-c2cc(C(C)C)c(O)cc2O)c1-c1ccc(CN2CCOCC2)cc1 [Luminespib] + CC(=O)Nc1cccc(-n2c(=O)n(C3CC3)c(=O)c3c(Nc4ccc(I)cc4F)n(C)c(=O)c(C)c32)c1 [Trametinib] (partner 0.02 µM)", "N"),
    ("CCNC(=O)c1noc(-c2cc(C(C)C)c(O)cc2O)c1-c1ccc(CN2CCOCC2)cc1 [Luminespib] + CC(=O)c1c(C)c2cnc(Nc3ccc(N4CCNCC4)cn3)nc2n(C2CCCC2)c1=O [Palbociclib] (partner 0.5 µM)", "Y"),
]

query: I wonder whether CCNC(=O)c1noc(-c2cc(C(C)C)c(O)cc2O)c1-c1ccc(CN2CCOCC2)cc1 [Luminespib] + O=C(CCCCCCC(=O)Nc1ccccc1)NO [Vorinostat] (partner 1 µM) has relative viability below 1. Can you tell?
result: Y

query: How about this molecule: CCNC(=O)c1noc(-c2cc(C(C)C)c(O)cc2O)c1-c1ccc(CN2CCOCC2)cc1 [Luminespib] + C[C@]1(O)C[C@@H](c2nc(-c3ccc4ccc(-c5ccccc5)nc4c3)c3c(N)nccn32)C1 [Linsitinib] (partner 1 µM)
result: Y
